Test system: mice
TEST METHOD NOTES: rotating rod test (ataxic effect)
Format: in vivo
COND: quotient of ED50 ataxia / ED50 Cardiazol shock; should be as large as possible
# strict inequality: ratio of ataxic activity to the anxiolytic activity < 8 yields Yes, everything else yields No

{"COMPOUND": "O=C1CN=C(c2ccccc2)c2nc(Cl)ccc2N1", "LABEL CLASS": "No"}
{"COMPOUND": "O=C1CN=C(c2ccccc2F)c2nc(Cl)ccc2N1", "LABEL CLASS": "No"}
{"COMPOUND": "CN1C(=O)CN=C(c2ccccc2F)c2nc(Cl)ccc21", "LABEL CLASS": "Yes"}
{"COMPOUND": "O=C1CN=C(c2ccccc2Cl)c2nc(Cl)ccc2N1", "LABEL CLASS": "No"}
{"COMPOUND": "CC1N=C(c2ccccc2)c2nc(Cl)ccc2NC1=O (racemic)", "LABEL CLASS": "Yes"}
{"COMPOUND": "CN1C(=O)CN=C(c2ccccc2Cl)c2nc(Cl)ccc21", "LABEL CLASS": "No"}
{"COMPOUND": "O=C(O)CCC(=O)OC1N=C(c2ccccc2Cl)c2nc(Cl)ccc2NC1=O (stereo not shown)", "LABEL CLASS": "No"}
{"COMPOUND": "CN1C(=O)CN=C(c2ccccc2)c2nc(Cl)ccc21", "LABEL CLASS": "Yes"}
{"COMPOUND": "CC(=O)OC1N=C(c2ccccc2Cl)c2nc(Cl)ccc2N(C(C)=O)C1=O (stereo not shown)", "LABEL CLASS": "Yes"}
{"COMPOUND": "O=C1Nc2ccc(Cl)nc2C(c2ccccc2Cl)=NC1O (stereo not shown)", "LABEL CLASS": "No"}
{"COMPOUND": "O=C1CN=C(c2ccccc2)c2nc(Cl)ccc2N1CC1CC1", "LABEL CLASS": "Yes"}
{"COMPOUND": "CN1C(=S)CN=C(c2ccccc2Cl)c2nc(Cl)ccc21", "LABEL CLASS": "No"}
